All figures here come from patent US20230203134A1.

target: T1, SARS-CoV-2 N-terminal domain (NTD) (SARS-CoV-2, UniProt P0DTC2 14-290); assay: quantitative ELISA
T1 construct: range 1-290

>  <binder>
monoclonal antibody 2-38 (antibody, V domains shown, also called mAb 2-38; antibody number 2-38) VH: EVQLVESGGGLVKPGGSLRLSCAASGFTFSSYSMNWVRQAPGKGLEWVSSISSSSSYIYYADSVKGRFTISRDNAKNSLYLQMNSLRAEDTAVYYCTRAGWELRLDAFDIWGQGTMVTVSS VL: SSELTQDPAVSVALGQTVRITCQGDSLRSSYASWYQQKPGQAPILVIYDKNNRPSGIPDRFSGSSSGNTASLTITGAQAEDEADYYCNSRDSSGILFGGGTKLTVL

>  <binding result>
no binding

$$$$
>  <binder>
monoclonal antibody 2-7 (antibody, V domains shown, also called mAb 2-7; antibody number 2-7) VH: QITLKESGPTLVKPTQTLTLTCTFSGFSLSTSGVGVGWIRQPPGKALEWLALIYWDDDKRYSPSLKSRLTITKDTSKNQVVLTMTNMDPVDTATYYCAHHKIERIFDYWGQGTLVTVSS VL: QSALAQPASVSGSPGQSITISCTGTSSDVGAYNYVSWYQQHPGKAPKLMIYDVSKRPSGVSNRFSGSKSGNTASLTISGLQAEDEADYYCSSYTTSSTVFGGGTKLTVL

>  <binding result>
no binding

$$$$
>  <binder>
monoclonal antibody 2-4 (antibody, V domains shown, also called mAb 2-4; antibody number 2-4) VH: QVQLVQSGAEVKKPGASVKVSCKASGYTFTGYYMHWVRQAPGQGLEWMGWINPNSGGTNYTQMFQGRVTMTRDTSISTAYMEVSRLRSDDTAVYYCARDRSWAVVYYYMDVWGKGTTVTVSS VL: QSALTQPPSASGSPGQSVTISCTGTSSDVGGYNYVSWYQQHPGKAPKLMIYEVSKRPSGVPDRFSGSKSGNTASLTVSGLQAEDEADYYCSSYAGSNNLVFGGGTKLTVL

>  <binding result>
no binding

$$$$
